TESTED SYSTEM: aldosterone synthase (Homo sapiens, UniProt P19099)
Sequence (P19099 25-503): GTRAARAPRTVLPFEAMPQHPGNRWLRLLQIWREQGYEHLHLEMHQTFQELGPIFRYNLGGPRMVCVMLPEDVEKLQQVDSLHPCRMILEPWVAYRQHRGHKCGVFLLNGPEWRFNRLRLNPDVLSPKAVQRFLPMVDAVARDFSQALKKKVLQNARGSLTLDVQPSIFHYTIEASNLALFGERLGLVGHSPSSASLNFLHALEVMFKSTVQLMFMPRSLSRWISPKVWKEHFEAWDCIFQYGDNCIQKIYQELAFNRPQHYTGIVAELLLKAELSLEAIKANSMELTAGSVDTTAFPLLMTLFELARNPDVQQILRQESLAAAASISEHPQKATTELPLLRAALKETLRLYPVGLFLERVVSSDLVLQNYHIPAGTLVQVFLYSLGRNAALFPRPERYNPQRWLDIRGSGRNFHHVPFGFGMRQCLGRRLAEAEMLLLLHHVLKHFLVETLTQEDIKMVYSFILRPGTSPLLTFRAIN
PROTOCOL DESCRIPTION: cellular aldosterone production in NCI-H295R cells stimulated with Ang II (RIA/SPA)
CONDITIONS: human adrenocortical carcinoma NCI-H295R cells, 1 μM Ang II, 24 hr
PARAMETER: IC50 (nM)

COMPOUND | IC50 (nM)
N#Cc1ccc(C2CCCCc3cncn32)c(Cl)c1 (stereo not shown) | 48
COC(=O)C1(c2ccc(C#N)cc2C(F)(F)F)CCc2cncn21 (stereo not shown) | 244
N#Cc1ccc(C2(C(=O)N3CCCCC3)CCc3cncn32)c(Cl)c1 (stereo not shown) | 135
C=C1CC(c2ccc(C#N)cc2F)n2cncc21 (stereo not shown) | 4
CCC1(c2ccc(C#N)cc2Cl)CCCCc2cncn21 (stereo not shown) | 217
N#Cc1ccc(C2CC3(CC3)c3cncn32)c(F)c1 (stereo not shown) | 11
N#Cc1ccc(C2CCCCc3cncn32)cc1Br (stereo not shown) | 23
COC(=O)C1(c2ccc(C#N)cc2OC(F)(F)F)CCc2cncn21 (stereo not shown) | 2

a: CC1CCCC(c2ccc(C#N)cc2-c2ccc(F)cc2)n2cncc21 (stereo not shown)
b: CCCCOC(=O)C1(c2ccc(C#N)cc2OC)CCc2cncn21 (stereo not shown)
*Q* Select the item with the higher value of IC50 from the options a and b listed. When you have decided, please share the label of that item.
*A* b
(b: 6 nM, a: 2 nM)
